Numbers sourced from the supplement of paper PMC10724198.

Test system: Saccharomyces cerevisiae
method: protein stability index of tFT-peptide fusion (C-terminal peptide) (PSI (0-1 scale)); higher = more stable (slower turnover);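 further: PSI is a weighted mean of sequencing reads over stability bins, variants kept only with over 10 reads, mCherry proximal and sfGFP distal, peptide attached via GGGS linker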
runConditions: genetic background: wild type; temperature: 30 C
The following sequences are listed with their measured protein stability index values.

- constructSequence: "SSSPLPPPRLPP"
  protein stability index: 0.704
- constructSequence: "CRLCVFGVWFCG"
  protein stability index: 0.499
- constructSequence: "LVCLWQGSSVLI"
  protein stability index: 0.671
- constructSequence: "ISLTHAPKTGFY"
  protein stability index: 0.695
- constructSequence: "DKKKRRERKDRT"
  protein stability index: 0.675
- constructSequence: "LPHTVITVPDPQ"
  protein stability index: 0.628
- constructSequence: "GRYAGFESRFGA"
  protein stability index: 0.666
- constructSequence: "CFHIFRKSNMNN"
  protein stability index: 0.726
- constructSequence: "GKSVVAHGLLGG"
  protein stability index: 0.67
- constructSequence: "GHSLDPSVVSPD"
  protein stability index: 0.674
- constructSequence: "PPHPSPPPPSHS"
  protein stability index: 0.693

----------
Reported protein stability index values for a set of sequences
System: Saccharomyces cerevisiae
method: protein stability index of tFT-peptide fusion (C-terminal peptide) (PSI (0-1 scale)); higher = more stable (slower turnover)
runConditions: genetic background: das1 deletion; temperature: 37 C
propertyMeasured: protein stability index

- constructSequence: "FCVVFFLSLVFL"
  valueObserved: 0.511
- constructSequence: "CLCFFLICFILF"
  valueObserved: 0.391
- constructSequence: "GVLFHIVLHFMV"
  valueObserved: 0.391
- constructSequence: "GLFLYCCLVSLL"
  valueObserved: 0.413
- constructSequence: "CFFMVGFVFYFV"
  valueObserved: 0.505
- constructSequence: "VFLLFFFGLFVF"
  valueObserved: 0.418
- constructSequence: "LSTPPLLPTPPS"
  valueObserved: 0.718
- constructSequence: "FRFSCLFSLFLS"
  valueObserved: 0.517
- constructSequence: "AVVCSRLVLFCL"
  valueObserved: 0.632
- constructSequence: "PVCRQVGVRLVA"
  valueObserved: 0.648
- constructSequence: "CFTLSLCLAFFF"
  valueObserved: 0.433
- constructSequence: "DQPLWIGVLAYC"
  valueObserved: 0.502
- constructSequence: "VAWWVCIRSCCG"
  valueObserved: 0.577
- constructSequence: "GILILRLILCLF"
  valueObserved: 0.385
- constructSequence: "LGVLVVAFCGGC"
  valueObserved: 0.541

----------
Tested on: Saccharomyces cerevisiae
method: protein stability index of tFT-peptide fusion (C-terminal peptide) (PSI (0-1 scale)); higher = more stable (slower turnover)
runConditions: genetic background: wild type; temperature: 37 C
The threshold is inclusive: protein stability index of exactly 0.5 counts as yes; values below receive no.

- constructSequence: "FGFFRLVIVCFR"
  category: "no"
- constructSequence: "PSLVFLPPPPPR"
  category: "yes"
- constructSequence: "VYCCVRSLRVAI"
  category: "yes"
- constructSequence: "GGLFRWCVWRIV"
  category: "no"
- constructSequence: "IFHWLYLLIALI"
  category: "no"
- constructSequence: "FFYRFQDLPRIC"
  category: "yes"
